System: HFF
Assay: Antiviral activity against HCMV was determined by plaque reduction assay using HFF cells
Type: functional, cell-based
Settings: Homo sapiens
Observable: IC50

Please review the following examples before continuing.
Compound: CN1N=C(NC(=O)c2ccccc2)c2cn(C3O[C@H](CO)[C@@H](O)[C@H]3O)c3ncnc1c23 (some centres undefined)
IC50: > 100 µM

Compound: CCCCC(=O)NC1=NN(C)c2ncnc3c2c1cn3C1O[C@H](CO)[C@@H](O)[C@H]1O (some centres undefined)
IC50: 0.45 µM

Compound: CN1N=C(NC(=O)C(C)(C)C)c2cn(C3O[C@H](CO)[C@@H](O)[C@H]3O)c3ncnc1c23 (some centres undefined)
IC50: > 100 µM

Kindly review the next compound as well.
[ask] Looking for the measured IC50 of CC(=O)NC1=NN(C)c2ncnc3c2c1cn3C1O[C@H](CO)[C@@H](O)[C@H]1O (some centres undefined) , can you help?
[reply] > 100 µM
